B1: TPR t1 (parent)
chain: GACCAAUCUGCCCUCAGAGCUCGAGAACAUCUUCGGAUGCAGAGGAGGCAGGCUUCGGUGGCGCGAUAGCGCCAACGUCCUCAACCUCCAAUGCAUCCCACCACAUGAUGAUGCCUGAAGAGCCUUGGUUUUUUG

variants of: B1; assay: polymerase ribozyme fitness, log enrichment relative to wild type (log ratio); higher = more active; in vitro selection for triplet polymerase activity
Where polymerase ribozyme fitness (log ratio) equals or exceeds -4, the correct label is true; where it does not, the label is false.

Here's what some known entries look like.
| Residues | Label class |
| --- | --- |
| GAUCAAUCUGCCCUCAGAGCUCGAGAACAUCUUCGGAUGCAGAGGAGGCAGGCUUCGGUGGCGCGAUAGCGCCAACGUCCUCAACCUCCAAUGCAUCCCACCACAUGAUGAGGACUGAAGAGCCUUGGUUUUUUG [C3U U112G C114A] | true |
| GACGAAUCUGCCCUCAGAGCUCGAGAACAUCUUCGGUUGCAGAGGAGGCAGGCUUCGGUGGCGCGAUAGCGCCAACGUCCUCAACCUCCAAUGCAUCCCACCACAUGAUGAUGCCUGAAGAGCCUUGGUUUUUUG [C4G A37U] | true |
| GACCAAUCUGCCCUCAGAGCUCGAGAACAUCUUUGGAUGCAGAGGAGGCAGGCUUCGGUGGCGCGAUAUCGCCAACGUCCUCAACCUCCAAUGCAUCCCACCACAUGAUGAUGCCUGAAGAGCCUUGGUUUUUUG [C34U G69U] | true |
| GACCAAUCUGCCCUCAGAGCUCGAGAACAUCUUCGGAUGCAGAGUAGGCAGGCUUCGGUGGCGCGAUAGCGCCAACGUCCUCAACCUCCAAUGCAUCCCACCACAAGAUGAUGCCUGAAGAGCCUUGGCUUUUUG [G45U U106A U129C] | true |
| GACCAAUCUCCCCUCAGAGCUCGAGAACAUCUUCGGAUGCAGAGGAGGCAGGCUUCGGGGGCGCGAUAGCGCCAACGUCCUCAACCUACAAUGCAUCCCACCAAAUGAUGAUGCCUGAAGAGCCUUGGUUUUUUG [G10C U59G C88A C104A] | true |

Threshold query (polymerase ribozyme fitness (log ratio) >= -4) on GACCAAUCUGCCCUCAGAGCUCGAGAACAUCUUCGGAUGCAGAGGAGGGAGGCUUCGGUUGCGCGAUAGCGCCAACGCCCUCAACCUCCAAUGCAUACCACCACAUGAUGAUGCCUGAAGAGCCUUGGUUUUUUG [C49G G60U U78C C97A] false

Now the variant GACCAAUCUGCCCUCAGAGCUCGAGAACAUCUUCGGAUGCAGAGGAGGCAGGCUUCGGUGGCGCGAUAGCGCCAACGUCCUCAACCUCCUAUGCAUCCCACCACAUGAUGAUGCCUUAAGAGCCUUGGUUUUUUG [A90U G117U] true

Now the variant GACCAAUCUGCCCUCAGAGCUCGGGAACAUCUUCGGAUGCCGAGGUGGCAGGAUUCGGUGGCGCGAUAGCGCCAACGUCCUCAACCUCCAAUGCAUCCCACCACAUGAUGAUGCCUGAAGAGCCAUGGUUUUUUG [A24G A41C A46U C53A U125A] false

Now the variant GACCAAUCUGCCCUCAGAGCUCGAGAACAUCUUCGGAUGCAGAGGAGGCAGGCUUCGGUGGCGCGAUAGGGCCAACGUACUCAACCUCCAAUGCAUCCCACCACAUGAUGCUGCCUGACGAGCCUUGGUUUUUUG [C70G C79A A111C A119C] false

Now the variant GACCAAUCUGCCCUCAGAGUUCGAGAACAUCUUCGGAUGCAGAGGAGGCAGGCUUCGGUGGCGCGAUAGCGCCAACGUCCUCAACCUCCAAUGGAUCCCAUCACAAGAUGAUGCCUGAAGAGCCUUGGUUUUUUG [C20U C94G C101U U106A] false
